biological target: human Glucose-dependent Insulinotropic Polypeptide Receptor (hGIPR) (Homo sapiens); experiment: Functional in vitro GIPR antagonist potency assay (cAMP HTRF, CHO-K1 cells stably expressing hGIPR, hGIP stimulation at about EC80); conditions: geometric mean, hGIP at estimated EC80, examples marked ^2: overall geometric mean of multiple forms (including salts) tested
Sequence (P48546 22-466): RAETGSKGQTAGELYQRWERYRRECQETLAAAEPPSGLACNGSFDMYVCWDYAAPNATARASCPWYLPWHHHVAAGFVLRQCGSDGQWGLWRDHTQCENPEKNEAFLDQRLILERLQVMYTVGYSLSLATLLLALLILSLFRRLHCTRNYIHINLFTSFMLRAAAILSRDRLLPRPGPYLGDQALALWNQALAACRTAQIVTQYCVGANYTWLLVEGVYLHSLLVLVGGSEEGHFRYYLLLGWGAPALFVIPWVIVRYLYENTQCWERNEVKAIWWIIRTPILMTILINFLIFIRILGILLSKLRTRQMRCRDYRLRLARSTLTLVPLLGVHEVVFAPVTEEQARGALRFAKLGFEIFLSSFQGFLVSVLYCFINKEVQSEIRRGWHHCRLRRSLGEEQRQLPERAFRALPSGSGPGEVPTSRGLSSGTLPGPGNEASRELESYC
measurement-name: IC50 (nM)

A = CC(C)c1ccc(NC(=O)N2CCC[C@@H]2C(=O)Nc2ccc(-c3ccc(C(=O)O)cc3)cc2)cc1F [Example 64]
B = O=C(O)c1cccc(-c2ccc(NC(=O)[C@H]3CCCN3C(=O)NCc3ccc(C(F)(F)F)c(F)c3)nc2)c1 [Example 223]
Q: Lab log: flag the item ( A or B ) with the smaller IC50 figure. Use the label to indicate which entry you chose.
Ans: A

a = CC(C)c1ccc(NC(=O)N2CCC[C@@H]2C(=O)Nc2ccc(-c3ccc(C(N)=O)cc3)cc2)cc1 [Example 91]
b = COc1cc(-c2ccc(NC(=O)[C@H]3CCCN3C(=O)Nc3ccc(C(C)C)c(F)c3)cc2)ccc1C(=O)O [Example 32]
c = O=C(O)c1ccc(-c2ccc(NC(=O)[C@H]3CCCN3C(=O)Nc3ccc(C(F)(F)F)nc3)cc2)cc1 [Example 72]
Q: // smallest IC50 at index 0, largest at the end Form field (ranking): labels in requested order.
Ans: b, a, c
(b: 6.1 nM, a: 39 nM, c: 69 nM)

###

target: human Glucose-dependent Insulinotropic Polypeptide Receptor (hGIPR) (Homo sapiens); assay: Functional in vitro GIPR antagonist potency assay (cAMP HTRF, CHO-K1 cells stably expressing hGIPR, hGIP stimulation at about EC80); details: geometric mean, hGIP at estimated EC80, examples marked ^2: overall geometric mean of multiple forms (including salts) tested
measurement-name: IC50 (µM)

Solved entries:
[[record]]
compound = "Cc1cc(NC(=O)N2CCC[C@@H]2C(=O)Nc2ccc(-c3ccc(C(=O)O)cc3)cc2)ncc1C(F)(F)F [Example 203]"
recorded_number = 0.0084

[[record]]
compound = "Cc1cc(NC(=O)N2CCC[C@@H]2C(=O)Nc2ccc(-c3ccc(C(=O)O)cc3)cc2)ccc1Cl [Example 43]"
recorded_number = 0.049


P = O=C(O)c1ccc(-c2ccc(NC(=O)[C@H]3CCCN3C(=O)Nc3ccc(C(F)(F)F)cc3)cn2)cc1 [Example 22]
Q = Cc1cc(NC(=O)N2CCC[C@@H]2C(=O)Nc2ccc(-c3cccc(C(=O)O)c3)cn2)ccc1C(F)(F)F [Example 175]
Q: Lab log: flag the item ( P or Q ) with the smaller IC50 figure. Use the label to indicate which entry you chose.
Ans: Q

###

molecular target: human Glucose-dependent Insulinotropic Polypeptide Receptor (hGIPR) (Homo sapiens); experiment: Functional in vitro GIPR antagonist potency assay (cAMP HTRF, CHO-K1 cells stably expressing hGIPR, hGIP stimulation at about EC80); conditions: geometric mean, hGIP at estimated EC80, examples marked ^2: overall geometric mean of multiple forms (including salts) tested
pIC50: −log10 of the molar value.
measurement-name: pIC50

Solved entries:
[[record]]
compound = "CC(C)c1ccc(NC(=O)N2CCC[C@@H]2C(=O)Nc2ccc(-c3ccc(C(=O)O)cc3)cc2)nc1 [Example 61]"
recorded_number = 6.82

[[record]]
compound = "COc1cc(-c2ccc(NC(=O)[C@H]3CCCN3C(=O)Nc3ccc(C(F)(F)F)c(C)c3)cc2)ccc1C(=O)O [Example 158]"
recorded_number = 8.11

[[record]]
compound = "Cc1cc(NC(=O)N2CCC[C@@H]2C(=O)Nc2ccc(-c3cccc(C(=O)O)c3)cn2)ncc1C(C)C [Example 184]"
recorded_number = 7.37

[[record]]
compound = "CC(C)c1ccc(NC(=O)N2CCC[C@@H]2C(=O)Nc2ccc3cc(C(=O)O)ccc3c2)cc1F [Example 152]"
recorded_number = 7.36

[[record]]
compound = "CC(C)c1ccc(NC(=O)N2CCC[C@@H]2C(=O)Nc2ccc(-c3ccc(O)c(Cl)c3)cc2)cc1 [Example 96]"
recorded_number = 6.74


a = CC(C)c1ccc(NC(=O)N2CCC[C@@H]2C(=O)Nc2ccc(-c3cc(F)c(C(=O)O)c(Cl)c3)cc2)cc1 [Example 83]
b = O=C(O)[C@@H]1CCc2nc(NC(=O)[C@H]3CCCN3C(=O)Nc3ccc(C(F)(F)F)c(F)c3)ccc2C1 (single isomer, unassigned) [Example 221]
Q: Lab log: flag the item ( a or b ) with the smaller pIC50 figure. Use the label to indicate which entry you chose.
Ans: a
